system: primary cortical neurons; test: Viability of normal primary cortical neurons after administration; format: cell-based, rat; details: 100 μM; normal neurons; control 1.00; mean ± SE
Below, each of the molecules is paired with its reported Cell survival rate of primary neurons after administration value.
Give your result in % as a bare value.

CC1(C)C=Cc2cc(NC(=O)/C=C/c3cccnc3)ccc2O1: 0.49
CC1(C)C=Cc2cc(NC(=O)/C=C/c3cccs3)ccc2O1: 0.89

Q: Sample CC1(C)C=Cc2cc(NC(=O)/C=C/c3ccc(O)c(O)c3)ccc2O1 — what was its Cell survival rate of primary neurons after administration?
Ans: 0.56

Q: Subsequent entry: COc1ccc(NC(=O)/C=C/c2ccc3c(c2)C=CC(C)(C)O3)cc1
Ans: 0.93

Q: Subsequent entry: CC1(C)C=Cc2cc(NC(=O)/C=C/c3ccco3)ccc2O1
Ans: 0.84

Q: Subsequent entry: CC1(C)C=Cc2cc(NC(=O)/C=C/c3ccccc3)ccc2O1
Ans: 0.78

Q: Subsequent entry: CC1(C)C=Cc2cc(/C=C/C(=O)Nc3ccccc3)ccc2O1
Ans: 0.85

Q: Subsequent entry: COc1cccc(NC(=O)/C=C/c2ccc3c(c2)C=CC(C)(C)O3)c1
Ans: 0.89

Q: Subsequent entry: CC1(C)C=Cc2cc(NC(=O)/C=C/c3ccc4c(c3)OCO4)ccc2O1
Ans: 0.85

Q: Subsequent entry: CC1(C)C=Cc2cc(NC(=O)/C=C/c3ccc(O)cc3)ccc2O1
Ans: 0.75

Q: Subsequent entry: COc1ccc(/C=C/C(=O)Nc2ccc3c(c2)C=CC(C)(C)O3)cc1
Ans: 0.86

Q: Subsequent entry: COc1ccccc1NC(=O)/C=C/c1ccc2c(c1)C=CC(C)(C)O2
Ans: 0.88

Q: Subsequent entry: CC1(C)C=Cc2cc(/C=C/C(=O)N3CCN(c4ccc(O)cc4)CC3)ccc2O1
Ans: 0.96

Q: Subsequent entry: CC1(C)C=Cc2cc(/C=C/C(=O)Oc3ccccc3)ccc2O1
Ans: 0.86

Q: Subsequent entry: CC1(C)C=Cc2cc(C(CC(=O)Nc3ccccc3)Nc3ccccc3)ccc2O1 (centres unmarked)
Ans: 0.99

Q: Subsequent entry: COc1ccc(/C=C/C(=O)Nc2ccc3c(c2)C=CC(C)(C)O3)cc1O
Ans: 0.77

Q: Subsequent entry: COc1ccc(NC(=O)CC(Nc2ccc(OC)cc2)c2ccc3c(c2)C=CC(C)(C)O3)cc1 (centres unmarked)
Ans: 0.80

Q: Subsequent entry: CC1(C)C=Cc2cc(NC(=O)/C=C/c3cccc4ccccc34)ccc2O1
Ans: 0.73

Q: Subsequent entry: COc1cc(/C=C/C(=O)Nc2ccc3c(c2)C=CC(C)(C)O3)ccc1O
Ans: 0.76

Q: Subsequent entry: COc1ccc(N2CCN(C(=O)/C=C/c3ccc4c(c3)C=CC(C)(C)O4)CC2)cc1
Ans: 0.91
